Test system: UCD patients
Experiment: HPN-100-009 (Example 2): growth and development, BMI and BSA Z-scores
Assay type: in vivo, human
Details: Age 2 Months to <2 Years
Measurement kind: BSA Z-score, Change from Baseline at Month 4

Tell us which BSA Z-score, Change from Baseline at Month 4 value is on record for O=C(CCCc1ccccc1)OCC(COC(=O)CCCc1ccccc1)OC(=O)CCCc1ccccc1
0.381

###

Tested on: UCD patients
Experiment: HPN-100-009 (Example 2): growth and development, BMI and BSA Z-scores
Type: in vivo, human
Conditions: Age 2 Months to <2 Years
Measurement kind: BMI Z-score, Change from Baseline at Month 5
Write no unit; give the number alone.

Tell us which BMI Z-score, Change from Baseline at Month 5 value is on record for O=C(CCCc1ccccc1)OCC(COC(=O)CCCc1ccccc1)OC(=O)CCCc1ccccc1 [RAVICTI]
0.164

###

Test system: UCD patients
Assay: HPN-100-009 (Example 2): growth and development, BMI and BSA Z-scores
Type: in vivo, human
Conditions: Age 2 Months to <2 Years
Measurement kind: BMI Z-score, Change from Baseline at Month 6
Write no unit; give the number alone.

Tell us which BMI Z-score, Change from Baseline at Month 6 value is on record for O=C(CCCc1ccccc1)OCC(COC(=O)CCCc1ccccc1)OC(=O)CCCc1ccccc1 [RAVICTI]
0.469

###

Tested on: UCD patients
Experiment: HPN-100-009 (Example 2): growth and development, BMI and BSA Z-scores
Format: in vivo, human
Details: Age 2 Months to <2 Years
Measurement kind: BMI Z-score, Change from Baseline at Month 4
Write no unit; give the number alone.

Tell us which BMI Z-score, Change from Baseline at Month 4 value is on record for O=C(CCCc1ccccc1)OCC(COC(=O)CCCc1ccccc1)OC(=O)CCCc1ccccc1
0.47

###

Test system: UCD patients
Experiment: HPN-100-009 (Example 2): growth and development, BMI and BSA Z-scores
Type: in vivo, human
Settings: Age 2 Months to <2 Years
Measurement kind: BMI Z-Score baseline
Write no unit; give the number alone.

Provide BMI Z-Score baseline, system UCD patients, entry O=C(CCCc1ccccc1)OCC(COC(=O)CCCc1ccccc1)OC(=O)CCCc1ccccc1
0.795

###

Test system: UCD patients
Assay: HPN-100-009 (Example 2): growth and development, BMI and BSA Z-scores
Format: in vivo, human
Details: Age 2 Months to <2 Years
Measurement kind: BSA Z-score, Change from Baseline at Month 3
Write no unit; give the number alone.

Tell us which BSA Z-score, Change from Baseline at Month 3 value is on record for O=C(CCCc1ccccc1)OCC(COC(=O)CCCc1ccccc1)OC(=O)CCCc1ccccc1 [RAVICTI]
0.119

###

Tested on: UCD patients
Test: HPN-100-009 (Example 2): growth and development, BMI and BSA Z-scores
Assay type: in vivo, human
Conditions: Age 2 Months to <2 Years
Measurement kind: BSA Z-score, Change from Baseline at Month 2
Write no unit; give the number alone.

Tell us which BSA Z-score, Change from Baseline at Month 2 value is on record for O=C(CCCc1ccccc1)OCC(COC(=O)CCCc1ccccc1)OC(=O)CCCc1ccccc1
-0.0437

###

Tested on: UCD patients
Experiment: HPN-100-009 (Example 2): growth and development, BMI and BSA Z-scores
Type: in vivo, human
Settings: Age 2 Months to <2 Years
Measurement kind: BMI Z-score, Change from Baseline at Month 3

Tell us which BMI Z-score, Change from Baseline at Month 3 value is on record for O=C(CCCc1ccccc1)OCC(COC(=O)CCCc1ccccc1)OC(=O)CCCc1ccccc1 [RAVICTI]
0.213

###

Test system: UCD patients
Test: HPN-100-009 (Example 2): growth and development, BMI and BSA Z-scores
Assay type: in vivo, human
Conditions: Age 2 Months to <2 Years
Measurement kind: BSA Z-score, Change from Baseline at Day 7
Write no unit; give the number alone.

Tell us which BSA Z-score, Change from Baseline at Day 7 value is on record for O=C(CCCc1ccccc1)OCC(COC(=O)CCCc1ccccc1)OC(=O)CCCc1ccccc1
-0.185

###

System: UCD patients
Experiment: HPN-100-009 (Example 2): growth and development, BMI and BSA Z-scores
Type: in vivo, human
Conditions: Age 2 Months to <2 Years
Measurement kind: BMI Z-score, Change from Baseline at Day 7
Write no unit; give the number alone.

Tell us which BMI Z-score, Change from Baseline at Day 7 value is on record for O=C(CCCc1ccccc1)OCC(COC(=O)CCCc1ccccc1)OC(=O)CCCc1ccccc1 [RAVICTI]
-0.211

###

Tested on: UCD patients
Assay: HPN-100-009 (Example 2): growth and development, BMI and BSA Z-scores
Assay type: in vivo, human
Settings: Age 2 Months to <2 Years
Measurement kind: BSA Z-Score baseline
Write no unit; give the number alone.

Tell us which BSA Z-Score baseline value is on record for O=C(CCCc1ccccc1)OCC(COC(=O)CCCc1ccccc1)OC(=O)CCCc1ccccc1
0.686

###

Test system: UCD patients
Assay: HPN-100-009 (Example 2): growth and development, BMI and BSA Z-scores
Format: in vivo, human
Details: Age 2 Months to <2 Years
Measurement kind: BMI Z-score, Change from Baseline at Month 2

Tell us which BMI Z-score, Change from Baseline at Month 2 value is on record for O=C(CCCc1ccccc1)OCC(COC(=O)CCCc1ccccc1)OC(=O)CCCc1ccccc1
0.0021

###

System: UCD patients
Test: HPN-100-009 (Example 2): growth and development, BMI and BSA Z-scores
Format: in vivo, human
Conditions: Age 2 Months to <2 Years
Measurement kind: BSA Z-score, Change from Baseline at Month 6
Write no unit; give the number alone.

Tell us which BSA Z-score, Change from Baseline at Month 6 value is on record for O=C(CCCc1ccccc1)OCC(COC(=O)CCCc1ccccc1)OC(=O)CCCc1ccccc1
0.398

// data source = patent US10668040B2
